pIC50: −log10 of the molar value.
Entries with reported pIC50 on GST-tagged wild-type human CRBN protein (Homo sapiens)

Example molecules with recorded pIC50:
O=C1CCC(N2Cc3cc4c(cc3C2=O)CN(Cc2ccc(F)cc2)C4)C(=O)N1 (stereo not shown) ... > 6.30
COc1c2c(cc3c1CN(C1CCC(=O)NC1=O)C3=O)CNC2 (stereo not shown) ... 6.00 to 6.30
O=C1CCC(N2Cc3cc4c(cc3C2)C(=O)N(C2CCC(=O)NC2=O)C4)CC1 (stereo not shown) ... 6.00 to 6.30
O=C1CCC(N2C(=O)c3cc4c(cc3C2=O)CN(C2CCCC23CCNCC3)C4)C(=O)N1 (stereo not shown) ... 5.00 to 6.00

Exercise: Which pIC50 value belongs to CC(C)(C)OC(=O)N1CCC(F)(CN2Cc3cc4c(cc3C2)C(=O)N(C2CCC(=O)NC2=O)C4=O)CC1 (stereo not shown) ?
Solution: 6.00 to 6.30

Exercise: Next: O=C1CCC(N2C(=O)c3cc4c(cc3C2=O)CN(Cc2cccc3c2OCCO3)C4)C(=O)N1 (stereo not shown)
Solution: > 6.30

====

pIC50: −log10 of the molar value.
// values below are pIC50; system is GST-tagged wild-type human CRBN protein (Homo sapiens, UniProt Q96SW2)
Sequence (Q96SW2 whole entry): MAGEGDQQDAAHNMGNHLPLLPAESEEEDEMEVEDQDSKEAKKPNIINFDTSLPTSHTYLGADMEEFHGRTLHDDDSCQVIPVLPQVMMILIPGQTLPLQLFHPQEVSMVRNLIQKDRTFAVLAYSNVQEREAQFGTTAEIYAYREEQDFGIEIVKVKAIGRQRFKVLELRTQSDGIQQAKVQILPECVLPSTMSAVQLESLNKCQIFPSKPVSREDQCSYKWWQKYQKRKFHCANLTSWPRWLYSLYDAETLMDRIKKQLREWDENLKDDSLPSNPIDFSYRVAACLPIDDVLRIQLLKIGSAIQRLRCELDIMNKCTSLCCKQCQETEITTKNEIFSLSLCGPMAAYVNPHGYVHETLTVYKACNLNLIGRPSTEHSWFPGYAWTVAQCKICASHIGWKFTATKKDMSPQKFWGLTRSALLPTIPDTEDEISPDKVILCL

Exercise: Sample COC1(CN2Cc3cc4c(cc3C2)C(=O)N(C2CCC(=O)NC2=O)C4=O)CCN(C(=O)OC(C)(C)C)CC1 (centres unmarked) [Example 268] — what was its pIC50?
Solution: 6.00 to 6.30

Exercise: Now consider COc1c2c(cc3c1C(=O)N(C1CCC(=O)NC1=O)C3=O)CN(CC1CN(Cc3ccc(F)cc3Cl)C1)C2 (centres unmarked) [Example 234] and answer again.
Solution: 6.00 to 6.30

Exercise: Another molecule: O=C1CCC(N2C(=O)c3cc4c(cc3C2=O)CN(Cc2ccc(F)cc2)CC4)C(=O)N1 (centres unmarked) [Example 221]
Solution: 6.00 to 6.30

Exercise: Check CNC1CCC(N2Cc3cc4c(cc3C2)C(=O)N(C2CCC(=O)NC2=O)C4=O)CC1 (centres unmarked) [Example 244] too.
Solution: > 6.30

Exercise: Would you kindly repeat that for CC(=O)N1CC(N2Cc3cc4c(cc3C2=O)CN(C2CCC(=O)NC2=O)C4=O)C1 (centres unmarked) [Example 233] ?
Solution: 5.00 to 6.00

Exercise: Then O=C(O)CN1Cc2cc3c(cc2C1)C(=O)N(C1CCC(=O)NC1=O)C3 (centres unmarked) [Example 237] ?
Solution: > 6.30

Exercise: How about this molecule: COc1c2c(cc3c1CN(C1CCC(=O)NC1=O)C3=O)CN(Cc1ccccc1)C2 (centres unmarked) [Example 220]
Solution: > 6.30

Exercise: Also O=C1CCC(N2C(=O)c3cc4c(cc3C2=O)CCNCC4)C(=O)N1 (centres unmarked) [Example 257] , if possible.
Solution: 5.00 to 6.00

====

pIC50: −log10 of the molar value.
Endpoint: pIC50. System: GST-tagged wild-type human CRBN protein (Homo sapiens). Items follow.

O=C1CCC(N2C(=O)c3cc4c(cc3C2=O)CC(CN2CCC(Cc3ccc(F)cc3)CC2)C4)C(=O)N1 (stereo not shown) ... > 6.30
O=C1CCC(N2C(=O)c3cc4c(cc3C2=O)CN(C2CCNC2)C4)C(=O)N1 (stereo not shown) ... > 6.30
O=C1CCC(N2Cc3cc4c(cc3C2=O)CN(CC2CCNCC2)C4)C(=O)N1 (stereo not shown) ... 6.00 to 6.30
O=C1CCC(N2Cc3cc4c(cc3C2=O)CN(CC2CN(Cc3ccc(F)c(F)c3)C2)C4=O)C(=O)N1 (stereo not shown) ... 6.00 to 6.30
O=C1CCC(N2Cc3cc4c(cc3C2=O)CN(C2CCNCC2)C4=O)C(=O)N1 (stereo not shown) ... > 6.30

Exercise: Look up pIC50 for this compound: O=C1CCC(N2C(=O)c3cc4c(cc3C2=O)CN([C@H]2C[C@H](C(=O)O)C2)C4)C(=O)N1 (stereo partly shown)
Solution: 6.00 to 6.30

Exercise: Now consider O=C1CCC(N2C(=O)c3cc4c(cc3C2=O)CN(Cc2ccc(F)nc2)C4)C(=O)N1 (stereo not shown) .
Solution: > 6.30

Exercise: Similarly, O=C1CCC(N2C(=O)c3cc4c(cc3C2=O)CN(C2CCC3(CCNCC3)CC2)C4)C(=O)N1 (stereo not shown) ?
Solution: > 6.30

Exercise: Entry to check: O=C(O)CN1Cc2cc3c(cc2C1)C(=O)N(C1CCC(=O)NC1=O)C3=O (stereo not shown)
Solution: > 6.30

Exercise: Same again, this time with O=C(O)CN1CCc2cc3c(cc2CC1)C(=O)N(C1CCC(=O)NC1=O)C3=O (stereo not shown)
Solution: 6.00 to 6.30

The measured values listed here are drawn from patent US20240166647A1.
